- systemName: T1, Human IL-18BP (amino acids 31-194), biotinylated (human, UniProt O95998 31-194, biotin on the AviTag (BirA ligase) where used biotinylated)
- T1 construct: Soluble decoy receptor; also called hIL-18BP; recombinant IL-18BP
- T1 sequence: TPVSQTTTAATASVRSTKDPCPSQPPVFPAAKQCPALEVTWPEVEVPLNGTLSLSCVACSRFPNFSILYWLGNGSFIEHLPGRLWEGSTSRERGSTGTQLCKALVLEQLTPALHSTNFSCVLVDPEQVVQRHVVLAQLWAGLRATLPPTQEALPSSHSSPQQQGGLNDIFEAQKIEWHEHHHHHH
- measurementProtocol: on-yeast binding isotherms; KD ratio relative to WT IL-18; yeast-displayed variant; ratio normalized to WT, from the 20 µM placeholder
quantityName: Dissociation Constant Ratio normalized to WT IL-18

binder	obsValue
SEQ ID NO: 35 (human DR-IL-18 variant hCS2) (ligand, Engineered variant) YFGKLESKLSVIRNLNDQVLFIDQGNRPLFEDMTDSDCRDNAPRTIFIISTYKDKQPRAKAVTISVKCEKISTLSCENKIISFKEMNPPDNIKDTKSDIIFFQRDVPGHKHKMQFESSSYEGYFLACEKERDLFKLILKKEDELGDRSIMFTIQNED	> 741
SEQ ID NO: 37 (human DR-IL-18 variant hCS4) (ligand, Engineered variant) RFGKLESKLSVIRNLNDQVLFIDQGNRPLFEDMTDSDCRDNAPRTIFIISTYRDSQPRGKAVTISVKCEKISTLSCENKIISFKEMNPPDNIKDTKSDIIFFQRNVPGHKYKMQFESSSYEGYFLACEKERDLFKLILKKEDELGDRSIMFTVQNED	> 424
SEQ ID NO: 89 (second generation human DR-IL-18 variant 6-12) (ligand, Engineered variant; recombinant soluble analyte in SPR and cell assays) YFGKLESKLSVIRNLNDQVLFIDQGNRPLFEDMTDSDCRDNAPRTIFIISKYSDSLARGLAVTISVKCEKISTLSCENKIISFKEMNPPDNIKDTKSDIIFFQRDVPGHSRKMQFESSSYEGYFLACEKERDLFKLILKKEDELGDRSIMFTVQNED	> 17000

Now consider a different binder.
stdin: Which Dissociation Constant Ratio normalized to WT IL-18 reading was recorded for the binder SEQ ID NO: 39 (human DR-IL-18 variant hA8) (ligand, Engineered variant) YFGKLESRLSVIRNLNDQVLFIDQGNRPLFEDMTDSDCRDNAPRTIFIISKYKDKQPRAQAVTISVKCEKISTLSCENKIISFKEMNPPDNIKDTKSDIIFFQRDVPGHKHKMQFESSSYEGYFLACEKERDLFKLILKKEDELGDRSIMFTIQNED ?
stdout: > 1170
